The following binders are listed with their measured OD450 values.
- SYSTEM: T1, human MSLN-R2-his protein (human, UniProt Q13421 391-486)
- T1 construct: Region 2 of human mesothelin, made in HEK293E cells, His-tagged; also called human MSLN-R2 protein; hMSLN-R2-his; not shown: His tag
- T1 sequence (Q13421 other isoform, or with tags, fused parts or gaps): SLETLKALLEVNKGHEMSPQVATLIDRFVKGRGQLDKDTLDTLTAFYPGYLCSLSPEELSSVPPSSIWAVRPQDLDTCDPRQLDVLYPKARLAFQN
- ASSAY_EXPLANATION: ELISA on coated MSLN-R2; antibody 0.0001 nM
Record the value in OD450, omitting the unit from your answer.

BINDER: S009-F8-5.15 (antibody, human IgG1, kappa, V domains shown) VH: QVQLQQPGTELVKPGASVKLSCKASGYTFTSYWMHWVKQRPGQGLEWIGHSNPSNGGTNYNEKFKSKATLTVDKSSSTAYMQLSSLTSEDSAVYYCARWVRGSNYEYFDVWGTGTTVTVSS VL: DIVMTQSQKFMSTTVGDRVSIICKASQNVGSAVAWCQQKPGQSPKLLIYSASNRYTGVPDRFTGSGSGTDFTLTISNMQSEDLADYFCQQYSSYPLTFAGGTKLEIKR
MEASURED_PARAMETER: OD450
MEASUREMENT_UNIT: OD450
OBSERVED_VALUE: 0.05

Would you kindly look at the next entry?
The recorded OD450 for entry S009-F8-19.21 (antibody, human IgG1, kappa, V domains shown) VH: EFQLQQSGPELVKPGASVKISCKTSGYSFTDYNMNWVKQSNGKSLEWIGVINPNYGTTGYNQKFKGKATLTVDQSSSTAYMQLNSLTSEDSAVYYCARGGYDGEAMDYWGHGTSVTVSS VL: QIVLTQSPAIMSASPGEKVTMTCSASSSVNYMHWYQQKSGTSPKRWIYDTSKLASGVPARFSGSGSGTSYSLTISSMEAEDAATYYCQQWSSYPPTFGGGTKLEIKR equals 0.05
